B1: Tyrosine-protein kinase Lck, residues 63 to 120; numbered along this chain, P06239 (parent)
chain: DNLVIALHSYEPSHDGDLGFEKGEQLRILEQSGEWWKAQSLTTGQEGFIPFNFVAKAN

- Variants of: B1
- Method summary: abundance fitness (aPCA) (normalised: wild type 0, dead -1); higher = more abundant; growth selection in yeast, the domain comes from the species named
- Recorded conditions: Homo sapiens
Mark condition met for reported abundance fitness of -0.3 or greater; mark condition not met for anything smaller.

T42L; condition met
A57I; condition met
A55L; condition not met
D17G; condition met
Q45S; condition met
E11G; condition not met
L26Q; condition not met
I28L; condition met
V4G; condition not met
E46R; condition met
G19K; condition met
I49T; condition not met
L3R; condition met
H14P; condition not met
